assay: Solvent scope of N,N′-dialkylaldaramides (1%) or N,N′-dialkylpentaramides (1%): gelation/solubility behaviour in solvents; type: physicochemical; parameters: key: g = gelation; s = soluble; p = precipitates; c = crystallizes; ns = not soluble; v = viscous; g* = unstable gel, precipitates; cg = crystalline gel; details: 1% gelling agent; 1,2-dichloroethane
VALUE KIND: Gelation/solubility behaviour in 1,2-dichloroethane

MOLECULE	MEASURED
CCCCNC(=O)[C@@H](O)[C@@H](O)[C@H](O)[C@@H](O)C(=O)NCCCC	ns
O=C(NC1CCCCC1)[C@@H](O)[C@@H](O)[C@H](O)[C@@H](O)C(=O)NC1CCCCC1 [Example 5, dicyclohexyl D-glucaramide]	cg
CC(C)=CCCC(C)CCNC(=O)[C@@H](O)[C@@H](O)[C@H](O)[C@@H](O)C(=O)NCCC(C)CCC=C(C)C (stereo partly drawn) [Example 11, dicitronellyl D-glucaramide]	s
